system: KCL-22 (Chronic Myelogenous Leukemia); test: combination Emax (second highest fraction inhibited in the dose matrix, 72 h); higher = more inhibition; extreme values may be limits of the assay
OUTCOME MEASURE: combination Emax

MOLECULE: CN(C)CCCOc1ccc(-c2ccc3ncc4c(c3c2)n(C2CCOCC2)c(=O)n4C)cn1 [AZD0156] + O=C(c1cc(Cc2n[nH]c(=O)c3ccccc23)ccc1F)N1CCN(C(=O)C2CC2)CC1 [Olaparib] (first compound max 3 µM, partner max 3 µM)
TARGET DESC: KCL-22 (Chronic Myelogenous Leukemia)
REPORTED MEASUREMENT: 0.457
//
MOLECULE: COc1nnc2ccc(N3CCC(c4ccc(OCCN5CCN(C)C(=O)[C@H]5C)cc4)CC3)nn12 [AZD5153] + CCN(CCO)CCCOc1ccc2c(Nc3cc(CC(=O)Nc4cccc(F)c4)[nH]n3)ncnc2c1 [AZD2811] (first compound max 1 µM, 7x7, partner max 1 µM)
TARGET DESC: KCL-22 (Chronic Myelogenous Leukemia)
REPORTED MEASUREMENT: 0.68
//
MOLECULE: Cc1c2c(nn1C)CSCc1cc(n(C)n1)CSc1cc(c3ccccc3c1)OCCCc1c(C(=O)O)n(C)c3c-2c(Cl)ccc13 [AZD5991] + CC1(C)CCC(CN2CCN(c3ccc(C(=O)NS(=O)(=O)c4ccc(NCC5CCOCC5)c([N+](=O)[O-])c4)c(Oc4cnc5[nH]ccc5c4)c3)CC2)=C(c2ccc(Cl)cc2)C1 [Venetoclax] (first compound max 1 µM, 7x7, partner max 1 µM)
TARGET DESC: KCL-22 (Chronic Myelogenous Leukemia)
REPORTED MEASUREMENT: 0.928
